Test system: BV2 cells
Test: MTT cell viability assay
Type: cell-based, mouse
Settings: Mus musculus, BV-2, read-out: Cell viability IC50
Experimental Readout: IC50 (µM)
Quick reminder: number only, in µM, skip the unit.

Problem: Param item = CC[C@]12C=CCN3CC[C@]4(C(=C(C(=O)OC)C1)Nc1ccccc14)[C@@H]32 ; retrieve measured IC50.
Result: 16.1
